# target.of.assay: ASC (Homo sapiens, UniProt Q96P20+Q9ULZ3)
# Construct: FLAG-ASC-PYD (N-terminal FLAG-tagged pyrin domain of ASC); with NLRP3 (NLRP3-FL-Btn, C-terminal biotinylated full-length)
# Sequence (Q9ULZ3 1-91 limits assumed): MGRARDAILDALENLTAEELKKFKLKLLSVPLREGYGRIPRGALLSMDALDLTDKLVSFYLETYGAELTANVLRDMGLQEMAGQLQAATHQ
# Sequence (Q96P20 whole entry, the tested form may be a part): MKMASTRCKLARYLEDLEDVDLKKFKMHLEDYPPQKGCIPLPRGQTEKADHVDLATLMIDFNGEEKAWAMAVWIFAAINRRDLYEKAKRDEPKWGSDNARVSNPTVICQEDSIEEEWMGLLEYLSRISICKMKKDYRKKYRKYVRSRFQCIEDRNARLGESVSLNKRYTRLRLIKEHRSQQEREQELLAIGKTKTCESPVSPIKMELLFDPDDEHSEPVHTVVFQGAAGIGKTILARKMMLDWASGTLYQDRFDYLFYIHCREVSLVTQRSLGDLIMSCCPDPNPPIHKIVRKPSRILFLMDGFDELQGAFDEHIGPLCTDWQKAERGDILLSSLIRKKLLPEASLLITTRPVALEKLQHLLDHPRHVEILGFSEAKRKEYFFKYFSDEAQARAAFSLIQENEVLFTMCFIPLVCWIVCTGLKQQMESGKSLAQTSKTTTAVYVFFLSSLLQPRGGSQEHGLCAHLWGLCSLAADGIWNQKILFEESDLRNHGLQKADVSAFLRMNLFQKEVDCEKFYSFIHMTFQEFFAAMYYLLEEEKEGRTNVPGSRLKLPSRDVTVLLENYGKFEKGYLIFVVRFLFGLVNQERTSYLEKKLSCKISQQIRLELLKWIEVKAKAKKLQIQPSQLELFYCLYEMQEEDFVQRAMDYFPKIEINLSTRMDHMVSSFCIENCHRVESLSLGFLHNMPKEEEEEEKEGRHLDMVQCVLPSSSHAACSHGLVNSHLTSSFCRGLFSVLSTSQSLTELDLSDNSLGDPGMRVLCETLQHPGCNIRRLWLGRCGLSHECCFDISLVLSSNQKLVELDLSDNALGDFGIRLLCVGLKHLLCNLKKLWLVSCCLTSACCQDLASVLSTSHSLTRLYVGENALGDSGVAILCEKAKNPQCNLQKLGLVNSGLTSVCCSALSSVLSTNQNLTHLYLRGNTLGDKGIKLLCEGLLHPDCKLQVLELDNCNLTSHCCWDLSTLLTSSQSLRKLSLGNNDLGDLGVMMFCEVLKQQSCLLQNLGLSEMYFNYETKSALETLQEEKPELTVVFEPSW
# assay.summary: ALPHA-screen protein-protein interaction inhibition, wheat germ cell-free synthesized proteins
observation.type: IC50 (µM)
Give bare numbers, in µM.

Per the records, this molecule ( Cc1ccccc1OCC(=O)NCC(c1ccc2c(c1)CCCN2C)N1CCCCC1 (stereo not shown) ) has IC50 equal to 14.6

Reference source for all entries: paper PMC7419506
